Biological target: T1, Bzz1-2, P38822
T1 sequence (P38822 568-633, looked up): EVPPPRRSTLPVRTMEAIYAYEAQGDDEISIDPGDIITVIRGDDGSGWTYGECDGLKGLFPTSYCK
Experiment: SPOT array
Conditions: median of control spots 4538
metric: SPOT intensity

Answered examples (3):
EQEEIAPSLPSRNSI
1
LYEAMPPTLPHRDWK
2
GRLRPKRIAPWHLIQ
4

1 = PSRRDSLSIPRAVDA
2 = GERSRPLVISILSSA
## Task For this pair, 1 and 2 , which shows a numerically higher SPOT intensity? Refer to your chosen entry by its label in the reply.
## Result 2
(2: 1, 1: 0)

a = DFTLPPPPPPPGLDE
b = RMVRRRPLRVQFSAR
## Task Of a and b , which carries the smaller reported SPOT intensity figure? Refer to your chosen entry by its label in the reply.
## Result a
(a: 0, b: 16)
